Just for reference, PubChem BioAssay is where these values come from.

- experiment.summary: growth suppression of yeast trafficking mutant, preliminary HTS, modulators of trafficking downstream of Golgi apparatus project, 1536-format plate, OD 615 nm (AID 637)
- assay.context: yeast transport mutant growth, absorbance 615 nm, 18 h; stronger effect = higher value
# Lookup of reported inhibition keyed by entry
# number only, unit % dropped from output

Examples with answers:
compound	obs.value
COc1cccc(OC)c1C(=O)n1nc(C)cc1C	4.1
Cc1nc2ccc(NC(=O)N3CCC(c4ccccc4)C3)cc2nc1C (stereo unspecified)	-1.43
CC(C)(C)OC(=O)N1CCC(C(=O)N2CCCCCC2)CC1	-6.36
COc1ccc(OCC(=O)Nc2cccc3ncccc23)cc1	3.61
CSc1nnc(-c2nnc(SC)n2-c2ccccc2)n1-c1ccccc1	6.77
O=C(C1CCC(N2C(=O)C3CC=CCC3C2=O)CC1)N1CCCCC1 (stereo unspecified)	-5.83
CCOC(=O)C1CCN(C(=O)c2ccc(Cl)c(Cl)c2)CC1	-2.3
COc1cccc(NC(=O)N2CCCC2C(=O)NC(C)C)c1 (stereo unspecified)	9.51
Cc1ccc(-c2nc(=S)c3c(n2Cc2ccco2)CCCC3)cc1	-5.32
COc1ccc(C2c3c(-c4ccccc4O)n[nH]c3C(=O)N2CCc2ccc(OC)c(OC)c2)cc1 (stereo unspecified)	6.94

# context switch: different compound, same inhibition
Exam item: So what's the measured inhibition for this one? O=C1CC(c2cccs2)CC2=C1C(c1ccccc1)n1ncnc1N2 (stereo unspecified)
Marked response: -2.3

---

- experiment.summary: SK-BR-3 cell growth inhibitors, pilot screen, 24 h, human (AID 572);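 further: compound exposure lasted between 18 and 24 h rather than exactly 24 h; 100% = carrier-treated control wells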
- assay.context: SK-BR-3 viability, CellTiter-Glo luminescence, at 10 µM, stronger effect = lower value
// reported viability for each item listed
Provide only the numeric value, understood in %.

Worked cases, viability given:
molecule	viability / %
COc1ccc(CCNC(=O)COc2ccc(S(=O)(=O)N3CCOCC3)cc2)cc1	98
Cc1cccc(OCC(=O)N2CCC(N3CCCCCC3)CC2)c1	95.5
O=C(CN1CCN(c2cccc(Cl)c2)CC1)N1CCCC1	105

With those in mind, consider the next molecule.
Exam item: Please look up its viability: `CCOC(=O)CSc1nnc(Cn2nnc(-c3ccccc3)n2)n1CC`
Marked response: 95.5

---

- experiment.summary: viability gain of MRP-1-high H69AR cells under doxorubicin, pilot screen, MRP-1 activator project, CellTiter-Glo, duplicate (AID 807);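 further: compound pretreatment 18-22 h then 72 h combined with doxorubicin; 0% = doxorubicin alone and 100% = vehicle without doxorubicin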
- assay.context: H69AR viability with doxorubicin, CellTiter-Glo luminescence; at 10 µM; stronger effect = higher value
Listing of recorded viability increase by entry.
Answer format: numeric, % implied, no suffix.

compound	unit.abbreviation	viability increase
CCOC(=O)CN1CC23C=CC(O2)C(C(=O)NCc2ccccc2OC)C3C1=O (stereo unspecified)	%	-3.18

Exam item: Find the recorded viability increase belonging to `Cc1ccc2ccc(S(=O)(=O)n3nc(C)cc3C)cc2c1` and report it.
Marked response: -1.12

Exam item: What viability increase value was documented for this compound, `CCO/C(C)=C1\C(=O)N(CC)c2ccccc21` ?
Marked response: -1.57

---

# key: entry, value: Her2 level
- tested.system: Receptor tyrosine-protein kinase erbB-2 (Homo sapiens) (UniProt P04626)
- Sequence (P04626 whole entry, looked up): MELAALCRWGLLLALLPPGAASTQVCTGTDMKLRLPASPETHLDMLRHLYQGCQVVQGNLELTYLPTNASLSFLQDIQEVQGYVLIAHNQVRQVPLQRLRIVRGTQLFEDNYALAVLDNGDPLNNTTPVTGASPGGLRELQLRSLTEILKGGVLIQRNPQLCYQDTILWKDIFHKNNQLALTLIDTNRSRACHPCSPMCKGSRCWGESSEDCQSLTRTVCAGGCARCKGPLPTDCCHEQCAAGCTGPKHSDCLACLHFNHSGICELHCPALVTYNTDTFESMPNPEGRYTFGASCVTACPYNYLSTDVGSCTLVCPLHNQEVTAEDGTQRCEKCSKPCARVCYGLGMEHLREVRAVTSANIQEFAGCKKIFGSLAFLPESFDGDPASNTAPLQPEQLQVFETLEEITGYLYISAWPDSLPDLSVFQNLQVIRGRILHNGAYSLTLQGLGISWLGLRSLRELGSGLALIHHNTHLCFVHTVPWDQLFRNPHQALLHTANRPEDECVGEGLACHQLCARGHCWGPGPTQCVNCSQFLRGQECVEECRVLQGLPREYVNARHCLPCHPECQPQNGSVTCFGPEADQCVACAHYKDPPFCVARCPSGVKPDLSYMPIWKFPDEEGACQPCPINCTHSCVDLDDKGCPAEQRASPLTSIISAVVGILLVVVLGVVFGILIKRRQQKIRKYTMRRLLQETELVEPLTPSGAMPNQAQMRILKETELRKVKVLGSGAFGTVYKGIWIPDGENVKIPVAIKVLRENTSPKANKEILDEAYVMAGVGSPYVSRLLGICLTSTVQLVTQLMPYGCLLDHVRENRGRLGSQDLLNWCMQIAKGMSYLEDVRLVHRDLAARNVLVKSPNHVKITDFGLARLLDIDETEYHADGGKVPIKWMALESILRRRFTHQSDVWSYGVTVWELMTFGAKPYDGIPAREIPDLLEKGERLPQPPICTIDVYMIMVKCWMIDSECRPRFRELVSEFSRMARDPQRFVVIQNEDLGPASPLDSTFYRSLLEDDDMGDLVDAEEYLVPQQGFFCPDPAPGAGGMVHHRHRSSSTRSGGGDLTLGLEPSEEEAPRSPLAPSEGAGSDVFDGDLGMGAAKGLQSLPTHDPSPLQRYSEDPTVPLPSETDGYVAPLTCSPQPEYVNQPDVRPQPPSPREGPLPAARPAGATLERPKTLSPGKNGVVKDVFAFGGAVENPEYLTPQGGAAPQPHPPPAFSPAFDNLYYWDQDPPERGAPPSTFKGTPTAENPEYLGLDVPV
- experiment.summary: reducers of endogenous Her2 protein level, primary screen, SKBR3 breast tumor cells, AlphaScreen, ATP viability (AID 461);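 further: lower value means less Her2 protein in the cells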
- assay.context: 18-24 h, at 10 µM, stronger effect = lower value
Number only, in %; omit the unit.

compound	readout.kind	obs.value
O=C(COC(=O)C1=COCCO1)Nc1ccccc1Oc1ccccc1	Her2 level	95
O=C(Cn1ccc2ccccc2c1=O)NCCC(=O)N1CCN(C(=O)c2ccco2)CC1	Her2 level	109
COc1cccc(NC(=O)COc2ccccc2C(N)=O)c1	Her2 level	110
COC(=O)c1ccccc1NC(=O)Cn1ccnc1	Her2 level	88.5
CN(C)S(=O)(=O)c1ccc(Oc2ccc(S(=O)(=O)N(C)C)cc2)cc1	Her2 level	96.5

Exam item: Need Her2 level, item `C[C@]12CCC(=O)C=C1CC[C@@H]1[C@@H]2CC[C@@]2(C)[C@H]1CC[C@]2(O)C(=O)CO`
Marked response: 142

Exam item: What measured Her2 level goes with `CO[C@@]1(NC(=O)CSCC#N)C(=O)N2C(C(=O)O)=C(CSc3nnnn3C)CS[C@@H]21` ?
Marked response: 136

Exam item: Please look up its Her2 level: `O=C(NCc1ccc2c(c1)OCO2)c1ccccn1`
Marked response: 107

Exam item: Her2 level lookup needed for `CC(=O)c1cnc2cc(-c3ccccc3)nn2c1C` , thanks.
Marked response: 110

Exam item: Which Her2 level reading was recorded for the compound Cc1ccc(CS(=O)(=O)CCC(=O)NCC2CCCO2)cc1 (stereo unspecified) ?
Marked response: 106

Exam item: Name the reported Her2 level value associated with the compound `Cc1ccc(CCC(=O)Nc2ccc(S(N)(=O)=O)cc2)o1`
Marked response: 116

---

- experiment.summary: inhibitors of the yeast RAM network, pilot screen, dse1pr::URA3 reporter, 5-FOA selection (AID 869);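 further: 0% = DMSO wells with no growth and 100% = 10 µM 1-NA-PP1 with full growth; RAM network block rescues cells from 5-FOA so hits raise OD615 growth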
- assay.context: S. cerevisiae dse1pr::URA3 5-FOA growth, OD615, 2 d; at 10 µM; stronger effect = higher value; strain carries analog-sensitive mutant Cbk1 kinase
Quick reference: inhibition of the listed items.
Number in %, nothing else.

Exam item: Please look up its inhibition: `Cc1ccc(C)c(S(=O)(=O)Nc2ccc(O)cc2)c1`
Marked response: 1.44

Exam item: Requested read-out: inhibition. Entry: CCC(C)[C@@H](C(=O)Nc1ccc2c(c1)OCO2)N1Cc2ccccc2C1=O (some centres undefined)
Marked response: 0.51

Exam item: What measured inhibition goes with `O=C(Nc1nnc(CC(=O)N2CCCC2)s1)c1cnccn1` ?
Marked response: 1.66

Exam item: Any idea what its inhibition is? The molecule is `CCN1CCN(CC(=O)Nc2ccccc2)C(=O)C1=O`
Marked response: 1.19

Exam item: Recorded inhibition for CC1CN(C(c2cccs2)c2sc3ncnn3c2O)CC(C)O1 (centres undefined) , please?
Marked response: 2.26

Exam item: Which value of inhibition has been reported for `C=COCCn1c(-c2nonc2N)nc2ccccc21` in the records?
Marked response: 1.75

---

- experiment.summary: RAM signaling pathway blockade in yeast – S. cerevisiae, Pdr1DBD-CYC8 efflux-inhibited sensitized strain, primary screen (AID 1298);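 further: 0% = DMSO untreated cells without growth and 100% = 10 µM 1-NA-PP1 full growth; higher means more yeast growth rescued from 5-FOA killing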
- assay.context: S. cerevisiae cbk1-as DSE1-URA3 strain, 5-FOA growth OD615, 2 d; at 50 µM; stronger effect = higher value
readout.kind: RAM network inhibition (%)
Write the answer as a number in %, unit excluded.

compound	obs.value
CCc1nnc2n1N=C(c1ccc(-c3cc(Cl)ccc3Cl)o1)CS2	5.16

Exam item: Can you look up the measured RAM network inhibition of `O=C(Nc1c(C(=O)N2CCCCC2)cnn1-c1ccccc1)c1ccccc1` for me?
Marked response: 2.44

Exam item: Bench note: what RAM network inhibition did `CCOc1cc(/C=N/O)cc(Br)c1OC` show?
Marked response: 5.14

Exam item: Tell me the measured RAM network inhibition of `Cn1c(=O)oc2cc(S(=O)(=O)N3CCCc4ccccc43)ccc21` , please.
Marked response: 3.9

Exam item: For the compound shown here, CCN(CC)CCN1C(=O)c2ccccc2NC1c1cccc(F)c1 (stereo unspecified) , give the reported RAM network inhibition.
Marked response: 8.87

Exam item: Endpoint output: RAM network inhibition of `O=C(Nc1ccc2nc(-c3cccnc3)[nH]c2c1)c1ccco1` . Value?
Marked response: 4.67

Exam item: Can you share its RAM network inhibition? I mean this compound: CC1CCN(CCNC(=O)c2ccc(NC(=O)C3CCCO3)cc2)CC1 (stereo unspecified)
Marked response: 3.74

Exam item: Recorded RAM network inhibition for `Cc1nc(SCC(=O)Nc2cccc(Cl)c2)n[nH]1` , please?
Marked response: -0.63

Exam item: Please look up its RAM network inhibition: `CC1(C)Cc2c(c(=S)nc(-c3ccccc3)n2CCOCCO)CO1`
Marked response: 4.58

Exam item: Recorded RAM network inhibition for `O=C(CSc1nnc(Cc2cc(=O)[nH]c(=O)[nH]2)n1-c1ccccc1)N1CCCCC1` , please?
Marked response: -2.08

Exam item: Request the reported RAM network inhibition associated with `COC(=O)c1cc(CSc2nc3ccc(C)cc3[nH]2)oc1C`
Marked response: 4.81

---

- experiment.summary: reversal of MRP1-mediated doxorubicin resistance, pilot screen, H69AR cells, doxorubicin co-treatment (AID 601)
- assay.context: H69AR cells + 2 uM doxorubicin, CellTiter-Glo, 72 h; measured here: viability with 2 uM doxorubicin; at 10 µM; stronger effect = lower value
class 1 if viability is below 90%. class 0 if not; exact matches included in class 0.

compound	classification
CCN(CCO)C1CC(=O)N(c2ccccc2C)C1=O (stereo unspecified)	class 1

Exam item: Please let me know if `CCc1ccc(CN(C)CCc2ccccn2)cc1` shows viability below 90%.
Marked response: class 1

Exam item: Lab log: compare recorded viability with 90%; is it strictly lower for COC(=O)c1ccccc1NC(=O)CC(NCc1ccccc1)C(=O)O (stereo unspecified) ?
Marked response: class 0

Exam item: I'd appreciate it if you could check whether `COc1cc(-c2nc(S(=O)(=O)c3ccccc3)c(N3CCOCC3)o2)cc(OC)c1OC` has viability smaller than 90%.
Marked response: class 1

Exam item: Please state whether viability is below 90% for `CCOc1cc(N2CCOCC2)c(OCC)cc1NC(=O)COC(=O)CCc1c[nH]c2ccccc12`
Marked response: class 0

Exam item: Problem: For the compound `COCC(=O)N(Cc1cc2cc(OC)ccc2[nH]c1=O)c1ccccc1` , is viability under 90%?
Marked response: class 1

Exam item: Given `CS(=O)(=O)N1CCN(c2ccccc2NC(=O)c2cccs2)CC1` , is recorded viability strictly lower than 90%?
Marked response: class 0

Exam item: Here's an entry: `CCOc1ccc2[nH]c(=O)c(CN(CCOC)C(=O)N3CCOCC3)cc2c1` . Is its viability below 90%?
Marked response: class 0

Exam item: # check: viability < 90% for `Cc1ccc(CSC2=NCCN2C(=O)C2CC2)cc1`
Marked response: class 1
